- test target: GDP-bound KRAS protein (aa 1-169), containing both G12D and C118A amino acid substitutions (Homo sapiens, UniProt P01116, C118A/G12D)
- Sequence (P01116 1-169 isoform P01116-2 G12D/C118A): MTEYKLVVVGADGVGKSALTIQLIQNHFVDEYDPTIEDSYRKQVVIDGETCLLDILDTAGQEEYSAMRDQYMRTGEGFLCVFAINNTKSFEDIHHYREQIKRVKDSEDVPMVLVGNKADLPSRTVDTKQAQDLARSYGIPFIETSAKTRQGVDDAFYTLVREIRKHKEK
- method notes: KRAS G12D Coupled Nucleotide Exchange Assay
- Assay type: biochemical
- measurement setup: 2 h compound pre-incubation
What Avg 2 h Coupled Exchange IC50 was measured for each of the following?
State just the number; it will be interpreted in nM.

Query block: Given Oc1cc(-c2c(F)cc3c(N4C[C@@H]5CC[C@H]4CN5)nc(OC[C@@]45CCCN4C[C@H](F)C5)nc3c2F)c2ccccc2c1 [Example 48] , state its recorded Avg 2 h Coupled Exchange IC50.
Result block: 4

Query block: Request the reported Avg 2 h Coupled Exchange IC50 associated with Nc1cc(Cl)c(C(F)(F)F)c(-c2ccc3c(N4C[C@H]5CC[C@@H](C4)N5)nc(OC[C@@]45CCCN4C[C@H](F)C5)nc3c2F)n1 [Example 228]
Result block: 2

Query block: # query: Avg 2 h Coupled Exchange IC50 of entry CCc1c(F)ccc2cc(O)cc(-c3ccc4c(N5C[C@H]6CC[C@@H](C5)N6)cc(OC[C@@]56CCCN5C[C@H](F)C6)nc4c3F)c12 [Example 211]
Result block: 29

Query block: Endpoint output: Avg 2 h Coupled Exchange IC50 of Cc1c(-c2cc(O)cc3cccc(Cl)c23)ccc2c(N3[C@@H]4CC[C@H]3CNC4)nc(OC[C@@]34CCCN3C[C@H](F)C4)nc12 [Example 98] . Value?
Result block: 13

Query block: GET /values?readout=Avg 2 h Coupled Exchange IC50&item= CCc1c(F)ccc2cc(O)cc(-c3c(O)cc4c(N5C[C@H]6CC[C@@H](C5)N6)nc(OC[C@@]56CCCN5C[C@H](F)C6)nc4c3F)c12 [Example 199]
Result block: 4

Query block: Recorded Avg 2 h Coupled Exchange IC50 of Oc1cc(-c2ccc3c(N4[C@@H]5CNC[C@H]4COC5)nc(OCC45CCCN4CC(F)(F)C5)nc3c2F)c2ccccc2c1 (some centres unmarked) [Example 10] , please.
Result block: 132

Query block: What measured Avg 2 h Coupled Exchange IC50 goes with CCc1c(F)ccc2cc(O)cc(-c3ccc4c(N5C[C@H]6CC[C@@](F)(C5)N6)nc(OC[C@@]56CCCN5C[C@H](F)C6)nc4c3F)c12 [Example 179] ?
Result block: 4

Query block: Avg 2 h Coupled Exchange IC50 lookup needed for Oc1cc(-c2ccc3c(N4C[C@H]5CC[C@@H](C4)N5)nc(OC[C@@]45CCCN4C[C@H](F)C5)nc3c2F)c2ccccc2c1F [Example 221] , thanks.
Result block: 1

The reported numbers originate from patent US20250059205A1.
